procedure_details: Lipophilicity, n-octanol/PBS (pH 7.4) distribution
Format: physicochemical
test_context: n-octanol/PBS pH 7.4, 177Lu-labeled, n=6
Listed here are compounds together with their documented logD7.4.
Number only, please.

Completed entries (count: 2):
{"compound": "CC(C)(C)[Si](F)(c1ccc(C(=O)NC[C@@H](NC(=O)CC[C@@H](C(=O)O)N2CCN(CC(=O)[O-])CCN(CC(=O)[O-])CCN(CC(=O)[O-])CC2)C(=O)N[C@H](CCCCNC(=O)CCC(=O)NCCC[C@@H](NC(=O)CC[C@H](NC(=O)N[C@@H](CCC(=O)O)C(=O)O)C(=O)O)C(=O)O)C(=O)O)cc1)C(C)(C)C.[Lu+3] [[^177Lu, ^19F]rhPSMA-7.3]", "logD7.4": "−4.12"}
{"compound": "O=C([O-])CN1CCN(CC(=O)[O-])CCN(CC(=O)NCC2CCC(C(=O)N[C@@H](Cc3ccc4ccccc4c3)C(=O)NCCCC[C@H](NC(=O)N[C@@H](CCC(=O)O)C(=O)O)C(=O)O)CC2)CCN(CC(=O)[O-])CC1.[177Lu+3] (stereo partly drawn) [[^177Lu]PSMA-617]", "logD7.4": "−4.1"}

Let us examine a further case.
INPUT: Please report logD7.4 for the following compound: CC(C)(C)[Si](F)(c1ccc(C(=O)NC[C@H](NC(=O)CC[C@H](C(=O)O)N2CCN(CC(=O)[O-])CCN(CC(=O)[O-])CCN(CC(=O)[O-])CC2)C(=O)N[C@H](CCCCNC(=O)CCC(=O)NCCC[C@@H](NC(=O)CC[C@H](NC(=O)N[C@@H](CCC(=O)O)C(=O)O)C(=O)O)C(=O)O)C(=O)O)cc1)C(C)(C)C.[Lu+3] [[^177Lu, ^19F]rhPSMA-7.2]
OUTPUT: −4.25

Hey, just so you know, these numbers are from patent US20240066155A1.
